# TARGET_OR_SYSTEM: VEGFR-2 (purified kinase domain, KDR active) (Homo sapiens, UniProt P35968)
# Sequence (P35968 834-1162 limits assumed): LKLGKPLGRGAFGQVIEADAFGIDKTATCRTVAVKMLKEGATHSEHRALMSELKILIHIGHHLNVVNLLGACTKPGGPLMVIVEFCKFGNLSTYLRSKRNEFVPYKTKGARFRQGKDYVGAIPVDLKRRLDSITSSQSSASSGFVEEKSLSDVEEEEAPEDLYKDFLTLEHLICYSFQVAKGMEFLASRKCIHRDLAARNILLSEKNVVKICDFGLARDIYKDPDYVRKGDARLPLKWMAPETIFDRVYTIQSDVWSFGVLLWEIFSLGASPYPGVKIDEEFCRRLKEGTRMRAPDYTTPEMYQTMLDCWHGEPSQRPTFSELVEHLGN
# RUN_DESCRIPTION: luminescence-based ADP-Glo kinase assay under controlled light conditions
# Assay type: biochemical
# Design: VEGFR-2 (purified kinase domain, KDR active, Promega); purchased Promega
# TEST_SETTINGS: PSS after irradiation at 365 nm, 1% DMSO
MEASURE: pIC50
Field pIC50 (float): negative decimal logarithm of the concentration in molar.

Return reported pIC50; argument: `CNC(=O)c1ccccc1Sc1ccc2c(-c3cccc(/N=N/c4ccccc4)c3)n[nH]c2c1`
5.89

* * *

# TARGET_OR_SYSTEM: VEGFR-2 (purified kinase domain, KDR active) (Homo sapiens, UniProt P35968)
# RUN_DESCRIPTION: luminescence-based ADP-Glo kinase assay under controlled light conditions
# Assay type: biochemical
# Parameters: VEGFR-2 (purified kinase domain, KDR active, Promega); purchased Promega
# TEST_SETTINGS: PSS after irradiation at 385 nm, 1% DMSO
MEASURE: IC50 (nM)
Numeric answer only, unit nM assumed.

Return reported IC50; argument: `CNC(=O)c1ccccc1Sc1ccc2c(-c3ccc(/N=N/c4ccccc4)cc3)n[nH]c2c1`
1440
